# Experiment Summary: Oligomeric status by native PAGE
# Type: physicochemical
# Details: 15 μg protein, 10% native gel (legend: 12%), Coomassie blue
Measurement Name: migration on native PAGE / oligomeric state

Molecule	Data Value
E131A (protein, left off: His6, end not stated, cleaved) MDKNELVQKAKLAEQAERYDDMAACMKSVTEQGAELSNEERNLLSVAYKNVVGARRSSWRVVSSIEQKTEGAEKKQQMAREYREKIETELRDICNDVLSLLEKFLIPNASQAESKVFYLKMKGDYYRYLAAVAAGDDKKGIVDQSQQAYQEAFEISKKEMQPTHPIRLGLALNFSVFYYEILNSPEKACSLAKTAFDEAIAELDTLSEESYKDSTLIMQLLRDNLTLWTSDTQGDEAEAGEGGEN	migrated as dimers
R55A: 14‐3‐3ζ dimer interface mutant (protein, left off: His6, end not stated, cleaved) MDKNELVQKAKLAEQAERYDDMAACMKSVTEQGAELSNEERNLLSVAYKNVVGAARSSWRVVSSIEQKTEGAEKKQQMAREYREKIETELRDICNDVLSLLEKFLIPNASQAESKVFYLKMKGDYYRYLAEVAAGDDKKGIVDQSQQAYQEAFEISKKEMQPTHPIRLGLALNFSVFYYEILNSPEKACSLAKTAFDEAIAELDTLSEESYKDSTLIMQLLRDNLTLWTSDTQGDEAEAGEGGEN	migrated as dimers

These entries and their values trace back to paper PMC12429009.
